Origin of values: patent US20040043959A1

- target: Human MTAP (Homo sapiens, UniProt Q13126)
- Construct: six-histidine tag (His6) (N); made in house; host or cells: E. coli BL21 DE3
- Sequence (Q13126 1-283): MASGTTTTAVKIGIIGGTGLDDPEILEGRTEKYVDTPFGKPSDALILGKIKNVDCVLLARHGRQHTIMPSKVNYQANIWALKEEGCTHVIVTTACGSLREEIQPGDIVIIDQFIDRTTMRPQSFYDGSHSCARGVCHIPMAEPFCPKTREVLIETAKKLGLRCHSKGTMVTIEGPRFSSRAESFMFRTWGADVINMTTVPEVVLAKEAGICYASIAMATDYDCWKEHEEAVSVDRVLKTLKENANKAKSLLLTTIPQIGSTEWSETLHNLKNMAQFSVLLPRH
- test.protocol: MTAP substrate assay, coupled spectrophotometric (adenine, xanthine oxidase)
- Format: biochemical
- applied.conditions: 10 min; compound 50 uM, 2 nM MTAP, relative to MTA at 50 uM; read-out: MT-A—50: initial velocity as a percentage of the initial velocity with MTA as substrate
- Method: An enzymatic assay to determine the activity of MTAP against a given substrate was performed. Human MTAP containing an N-terminal six-histidine tag was expressed in E. coli BL21 DE3 cells. The protein was purified to homogeneity by Ni2+ affinity chromatography. Enzymatic activity was measured using a coupled spectrophotometric assay designed to monitor the reaction product adenine (Savarese, T. M., Crabtree, G. W., and Parks, R. E. Jr., (1980) Biochem. Pharmacol. 30, 189-199). […]
Give measured activity at 50 µM for each item. Keep answers brief.
Only the number, expressed in %, is required.

In: May I ask what activity at 50 µM has been recorded for `Nc1ncnc2c1ncn2[C@@H]1O[C@H](CSCc2ccccc2F)[C@@H](O)[C@H]1O` ?
Out: 58.5

In: Which activity at 50 µM is listed for `Nc1ncnc2c1ncn2[C@@H]1O[C@H](CSc2ccc([N+](=O)[O-])cn2)[C@@H](O)[C@H]1O` ?
Out: 21

In: Given the entry `CNC(=O)c1ccccc1SC[C@H]1O[C@@H](n2cnc3c(N)ncnc32)[C@H](O)[C@@H]1O` , report its measured activity at 50 µM.
Out: 28

In: GET /values?readout=activity at 50 µM&item= `NC(=O)CSC[C@H]1O[C@@H](n2cnc3c(N)ncnc32)[C@H](O)[C@@H]1O`
Out: 28

In: // lookup activity at 50 µM for `Nc1ncnc2c1ncn2[C@@H]1O[C@H](CSCC(F)(F)F)[C@@H](O)[C@H]1O`
Out: 32

In: Recorded activity at 50 µM for `Nc1ccc2[nH]c(SC[C@H]3O[C@@H](n4cnc5c(N)ncnc54)[C@H](O)[C@@H]3O)nc2c1` , please?
Out: 36

In: Item under review: `CCCSc1ccc2[nH]c(SC[C@H]3O[C@@H](n4cnc5c(N)ncnc54)[C@H](O)[C@@H]3O)nc2c1` . Reported activity at 50 µM?
Out: 0

In: So what does the record say about activity at 50 µM for `CC(=O)NCCSC[C@H]1O[C@@H](n2cnc3c(N)ncnc32)[C@H](O)[C@@H]1O` ?
Out: 11

----------
- target: Human MTAP (Homo sapiens)
- Construct: six-histidine tag (His6) (N); made in house; host or cells: E. coli BL21 DE3
- test.protocol: MTAP substrate assay, coupled spectrophotometric (adenine, xanthine oxidase)
- Assay type: biochemical
- applied.conditions: 10 min; compound 50 uM, 2 nM MTAP, relative to MTA at 50 uM; read-out: MT-A—50: initial velocity as a percentage of the initial velocity with MTA as substrate
endpoint: activity at 50 µM (%)
Give a bare numeral; the unit % is implied.

In: Can you look up the measured activity at 50 µM of CNC(=O)CSC[C@H]1O[C@@H](n2cnc3c(N)ncnc32)[C@H](O)[C@@H]1O [2(G)(56)] for me?
Out: 10

In: What value of measured activity at 50 µM is listed for Nc1ncnc2c1ncn2[C@@H]1O[C@H](CSc2cccc(C(=O)O)c2)[C@@H](O)[C@H]1O [2(G)(90)] ?
Out: 8

In: So what does the record say about activity at 50 µM for CCCCCCCCSC[C@H]1O[C@@H](n2cnc3c(N)ncnc32)[C@H](O)[C@@H]1O [2(G)(142)] ?
Out: 58

In: Consider the compound Cc1cc(C)nc(SC[C@H]2O[C@@H](n3cnc4c(N)ncnc43)[C@H](O)[C@@H]2O)n1 [2(G)(154)] and give its measured activity at 50 µM.
Out: 26

In: So what's the measured activity at 50 µM for this one? C=CCSC[C@H]1O[C@@H](n2cnc3c(N)ncnc32)[C@H](O)[C@@H]1O [2(G)(44)]
Out: 82

In: Find the recorded activity at 50 µM belonging to Nc1nnc(SC[C@H]2O[C@@H](n3cnc4c(N)ncnc43)[C@H](O)[C@@H]2O)s1 [2(G)(9)] and report it.
Out: 47

In: So what does the record say about activity at 50 µM for Cn1c(CO)cnc1SC[C@H]1O[C@@H](n2cnc3c(N)ncnc32)[C@H](O)[C@@H]1O [2(G)(63)] ?
Out: 5

In: Quick one: activity at 50 µM of Cc1cccc2[nH]c(SC[C@H]3O[C@@H](n4cnc5c(N)ncnc54)[C@H](O)[C@@H]3O)nc12 [2(G)(46)] ?
Out: 45
